// provenance: the supplement of paper PMC11061612

Tested on: LN-405 (Glioblastoma)
Experiment: combination Emax (second highest fraction inhibited in the dose matrix, 72 h); higher = more inhibition; extreme values may be limits of the assay
Reported combination Emax values follow for various compounds
// print number alone

Some solved cases for reference:
| COMPOUND | SYSTEM NAME | combination Emax |
| --- | --- | --- |
| Cn1cnc2c(F)c(Nc3ccc(Br)cc3Cl)c(C(=O)NOCCO)cc21 [Selumetinib] + CC(C)n1c(=O)n(C)c2cnc3cc(F)c(-c4ccc(OCCCN5CCCCC5)nc4)cc3c21 [AZD1390] (first compound max 10 µM, 7x7, partner max 0.3 µM) | LN-405 (Glioblastoma) | 0.129 |
| CS(=O)(=O)CCNCc1ccc(-c2ccc3ncnc(Nc4ccc(OCc5cccc(F)c5)c(Cl)c4)c3c2)o1 [Lapatinib] + C[C@@H](Oc1cc(-c2cnn(C3CCNCC3)c2)cnc1N)c1c(Cl)ccc(F)c1Cl [Crizotinib] (first compound max 10 µM, 7x7, partner max 10 µM) | LN-405 (Glioblastoma) | 0.493 |

The record that follows has no combination Emax shown yet.
Form field: reported combination Emax of CC(=O)c1c(C)c2cnc(Nc3ccc(N4CCNCC4)cn3)nc2n(C2CCCC2)c1=O [Palbociclib] + CN(CC[C@H](CSC1=CC=CC=C1)NC2=C(C=C(C=C2)S(=O)(=O)NC(=O)C3=CC=C(C=C3)N4CCC(CC4)[C@H](C5=CC=CC=C5C6=CC=C(C=C6)Cl)O)S(=O)(=O)C(F)(F)F)CCO [AZD4320] (first compound max 10 µM, 7x7, partner max 1 µM)
0.69

* * *

Test system: PANC-10-05 (Pancreatic Carcinoma)
Assay: combination Emax (second highest fraction inhibited in the dose matrix, 72 h); higher = more inhibition; extreme values may be limits of the assay
Reported combination Emax values follow for various molecules

Some solved cases for reference:
| MOLECULE | RECORDED MEASUREMENT |
| --- | --- |
| C[C@@H](Oc1cc(-c2cnn(C3CCNCC3)c2)cnc1N)c1c(Cl)ccc(F)c1Cl [Crizotinib] + CC1=C(C(=CC=C1)Cl)NC(=O)C2=CN=C(S2)NC3=CC(=NC(=N3)C)N4CCN(CC4)CCO [Dasatinib] (first compound max 10 µM, 7x7, partner max 2 µM) | 0.813 |
| NC1(C(=O)N[C@@H](CCO)c2ccc(Cl)cc2)CCN(c2ncnc3[nH]ccc23)CC1 [Capivasertib] + CC(C)n1c(=O)n(C)c2cnc3cc(F)c(-c4ccc(OCCCN5CCCCC5)nc4)cc3c21 [AZD1390] (first compound max 10 µM, 7x7, partner max 0.3 µM) | 0.416 |

Form field: reported combination Emax of NC1(C(=O)N[C@@H](CCO)c2ccc(Cl)cc2)CCN(c2ncnc3[nH]ccc23)CC1 [Capivasertib] + Cn1cnc2c(F)c(Nc3ccc(Br)cc3Cl)c(C(=O)NOCCO)cc21 [Selumetinib] (first compound max 10 µM, 7x7, partner max 10 µM)
0.727

Form field: reported combination Emax of CC1(C)CCC(CN2CCN(c3ccc(C(=O)NS(=O)(=O)c4ccc(NCC5CCOCC5)c([N+](=O)[O-])c4)c(Oc4cnc5[nH]ccc5c4)c3)CC2)=C(c2ccc(Cl)cc2)C1 [Venetoclax] + CN(C)CCCOc1ccc(-c2ccc3ncc4c(c3c2)n(C2CCOCC2)c(=O)n4C)cn1 [AZD0156] (first compound max 1 µM, 7x7, partner max 1 µM)
0.229
